test system: SNB-19 CNS; experiment: NCI tumour cell line growth inhibition, 48 h; in the data active = GI50 below about 0.43 µM; inactive = the rest
Response enum: Yes = active, No = inactive

{"columns": ["molecule", "groupLabel"],
 "data": [
  ["CC(=O)c1ccc2c(c1)N(CCCN(C)C)c1ccccc1S2", "No"],
  ["CCCCCSC1C2C(=O)C(Br)=CC13CCNc1c(O)c4c5c(c13)=[N+]2CCC=5C=N4 (stereo not given)", "No"],
  ["CSc1nc(N)c2c(n1)NC(c1ccccc1)C1CCc3ccccc3C1=N2 (stereo not given)", "No"]
]}

Assay result, entry Cc1cc(O)cc(C)c1/C=C/c1cncc(C(=O)OC(C)(C)C)c1 — outcome?
No

Assay outcome for CC(=O)/C(=C\c1c(-c2ccccc2)[nH]c2ccccc12)S(=O)(=O)c1ccccc1 : what was it?
No

Record request — test call for CCCCN1CCN(c2ccc3nc(-c4ccc5nc(-c6ccc(OCC)c(OCC)c6)[nH]c5c4)[nH]c3c2)CC1
No

What did the test return for COc1ccc2[nH]c(O)c(/C=c3/ccc4c(c3)N=C(c3ccc(F)cc3)N=4)c2c1 ?
No

Recorded test outcome, item Cc1cc(S(N)(=O)=O)c(S/C(=N\Nc2ccc([N+](=O)[O-])cc2)c2ccc3ccccc3c2)cc1Cl
No

Tell me the recorded outcome of this test for CC(C)(C)OC(=O)NCCCCCCCCCCn1c2c(c3ccccc3c1=O)C(=O)c1ccccc1-2 .
No

What did this assay record as the result for COc1ccc(-c2nc(-c3nc4ccc(C(F)(F)F)cc4[nH]3)c3ccccn23)cc1 ?
No

What classification did CN(C)c1ccc(C(=C2C=CC(=[N+](C)C)C=C2)c2ccccc2Cl)cc1 end up with in this test?
Yes

Called result for CCN(CC)c1ccc(/C=C/C=C(/C#N)C(N)=S)cc1
No

Please indicate how the test categorized C[C@@](O)(/C=C/[C@H]1CC=CC(=O)O1)[C@@H](C[C@@H](O)\C=C/C=C\C=C\CO)OP(=O)(O)O .
No

Which outcome was assigned to O=C(COc1ccc(-c2nc3cc(Cl)c(Cl)cc3[nH]2)cc1)N=Nc1c(O)[nH]c2ccccc12 in this test?
No

What did the test return for COc1cc(C2C3=C(COC3=O)Nc3cc4c(cc32)OCO4)cc2c1OCO2 (stereo not given) ?
Yes
